- target-desc: human Cereblon WT GST-tagged protein (Homo sapiens, UniProt Q96SW2)
- Construct: purchased CISBIO 64BDCRBNPEH
- Sequence (Q96SW2 whole entry): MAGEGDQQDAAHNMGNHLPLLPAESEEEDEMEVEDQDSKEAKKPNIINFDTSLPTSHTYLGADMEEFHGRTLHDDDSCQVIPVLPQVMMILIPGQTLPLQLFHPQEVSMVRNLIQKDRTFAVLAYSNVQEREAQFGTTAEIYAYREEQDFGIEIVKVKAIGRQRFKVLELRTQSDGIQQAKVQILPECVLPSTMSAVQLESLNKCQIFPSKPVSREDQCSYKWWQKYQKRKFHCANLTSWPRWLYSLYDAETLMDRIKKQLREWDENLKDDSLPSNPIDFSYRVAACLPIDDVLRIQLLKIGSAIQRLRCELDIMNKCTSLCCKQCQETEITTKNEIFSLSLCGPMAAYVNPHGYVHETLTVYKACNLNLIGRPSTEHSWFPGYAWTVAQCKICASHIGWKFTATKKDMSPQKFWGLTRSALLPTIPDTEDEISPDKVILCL
- experiment: CRBN-binding affinity, HTRF (CEREBLON BINDING kit)
- measurement-setup: read-out: Inhibition Rate at 0.5 µM (%)
test-readout: inhibition at 0.5 µM

Worked examples, 7 molecules total:
molecule | inhibition at 0.5 µM
O=C1CCC(N2Cc3c(CN4CCN(c5ncc(C(F)(F)F)cc5Cl)CC4)cccc3C2=S)C(=O)N1 (centres unmarked) | 30 to 40%
O=C1CCC(N2Cc3c(CN4CCN(c5ccc(C(F)(F)F)cc5)CC4)cccc3C2=S)C(=O)N1 (centres unmarked) | 30 to 40%
O=C1CCC(N2Cc3cc(CN4C[C@@H]5C[C@H]4CN5C(c4ccccc4)c4ccccc4)ccc3C2=S)C(=O)N1 (some centres unmarked) | 60 to 80%
Cc1nc(C2CCN(Cc3cccc4c3CN(C3CCC(=O)NC3=O)C4=S)CC2)c2c3c(sc2n1)CCCC3 (centres unmarked) | 53 to 60%
O=C1CCC(N2Cc3cc(CN4CCN(c5cccc(Cl)n5)CC4)ccc3C2=S)C(=O)N1 (centres unmarked) | 60 to 80%
Cc1ccsc1C1CCN(Cc2ccc3c(c2)CN(C2CCC(=O)NC2=O)C3=S)CC1 (centres unmarked) | 40 to 53%
Cc1ccccc1N1CCN(Cc2ccc3c(c2)CN(C2CCC(=O)NC2=O)C3=S)CC1 (centres unmarked) | 40 to 53%

Kindly review the next molecule as well.
IN: Sample O=C1CCC(N2Cc3c(CN4CCN(c5ccc(F)cn5)CC4)cccc3C2=S)C(=O)N1 (centres unmarked) — what was its inhibition at 0.5 µM?
OUT: 53 to 60%

---

- target-desc: human Cereblon WT GST-tagged protein (Homo sapiens, UniProt Q96SW2)
- Construct: purchased CISBIO 64BDCRBNPEH
- experiment: CRBN-binding affinity, HTRF (CEREBLON BINDING kit)
- measurement-setup: read-out: Inhibition Rate at 2 µM (%)
Reported inhibition at 2 µM is given for each of the following compounds.

Worked examples, 5 compounds total:
compound | assay-value
O=C1CCC(N2Cc3c(CN4CC5CCC4CN5C(c4ccccc4)c4ccccc4)cccc3C2=S)C(=O)N1 (stereo not shown) | 80 to 100%
O=C1CCC(N2Cc3cc(CN4CCN(c5n[nH]c6cc(F)ccc56)CC4)ccc3C2=S)C(=O)N1 (stereo not shown) | 80 to 100%
O=C1CCC(N2Cc3cc(CN4CC=C(c5cncc(Cl)c5Cl)CC4)ccc3C2=S)C(=O)N1 (stereo not shown) | 80 to 100%
Cc1ccccc1N1CCN(Cc2ccc3c(c2)CN(C2CCC(=O)NC2=O)C3=S)CC1 (stereo not shown) | 80 to 100%
O=C1CCC(N2Cc3c(CN4CCN(c5nc(N6CCOCC6)c6sccc6n5)CC4)cccc3C2=S)C(=O)N1 (stereo not shown) | 80 to 100%

IN: Sample O=C1CCC(N2Cc3cc(CN4CCN(c5nsc6cc(F)ccc56)CC4)ccc3C2=S)C(=O)N1 (stereo not shown) — what was its inhibition at 2 µM?
OUT: 80 to 100%

IN: Sample COc1ccc(N2CCN(Cc3cccc4c3CN(C3CCC(=O)NC3=O)C4=S)CC2)cc1 (stereo not shown) — what was its inhibition at 2 µM?
OUT: 60 to 80%

IN: Sample O=C1CCC(N2Cc3c(CN4CC=C(c5ccsc5)CC4)cccc3C2=S)C(=O)N1 (stereo not shown) — what was its inhibition at 2 µM?
OUT: 60 to 80%

IN: Sample O=C1CCC(N2Cc3cc(CN4CCN(c5ccc(Br)cc5)CC4)ccc3C2=S)C(=O)N1 (stereo not shown) — what was its inhibition at 2 µM?
OUT: 80 to 100%

IN: Sample O=C1CCC(N2Cc3cc(CN4CCN(c5c(F)c(F)nc(F)c5F)CC4)ccc3C2=S)C(=O)N1 (stereo not shown) — what was its inhibition at 2 µM?
OUT: 80 to 100%

IN: Sample O=C1CCC(N2Cc3c(CN4CCN(C(c5ccc(F)cc5)c5ccc(F)cc5)CC4)cccc3C2=S)C(=O)N1 (stereo not shown) — what was its inhibition at 2 µM?
OUT: 60 to 80%

IN: Sample O=C1CCC(N2Cc3c(CN4CCN(c5ccncc5Cl)CC4)cccc3C2=S)C(=O)N1 (stereo not shown) — what was its inhibition at 2 µM?
OUT: 80 to 100%

Source listed as patent EP4745135A1.
